target: Human GlyT1c (Homo sapiens); assay: Glycine uptake in recombinant hGlyT1 expressing cells; details: hGlyT1c_5_CHO cells; [3H]-glycine uptake, 60-120 min
Sequence (P48067 whole entry): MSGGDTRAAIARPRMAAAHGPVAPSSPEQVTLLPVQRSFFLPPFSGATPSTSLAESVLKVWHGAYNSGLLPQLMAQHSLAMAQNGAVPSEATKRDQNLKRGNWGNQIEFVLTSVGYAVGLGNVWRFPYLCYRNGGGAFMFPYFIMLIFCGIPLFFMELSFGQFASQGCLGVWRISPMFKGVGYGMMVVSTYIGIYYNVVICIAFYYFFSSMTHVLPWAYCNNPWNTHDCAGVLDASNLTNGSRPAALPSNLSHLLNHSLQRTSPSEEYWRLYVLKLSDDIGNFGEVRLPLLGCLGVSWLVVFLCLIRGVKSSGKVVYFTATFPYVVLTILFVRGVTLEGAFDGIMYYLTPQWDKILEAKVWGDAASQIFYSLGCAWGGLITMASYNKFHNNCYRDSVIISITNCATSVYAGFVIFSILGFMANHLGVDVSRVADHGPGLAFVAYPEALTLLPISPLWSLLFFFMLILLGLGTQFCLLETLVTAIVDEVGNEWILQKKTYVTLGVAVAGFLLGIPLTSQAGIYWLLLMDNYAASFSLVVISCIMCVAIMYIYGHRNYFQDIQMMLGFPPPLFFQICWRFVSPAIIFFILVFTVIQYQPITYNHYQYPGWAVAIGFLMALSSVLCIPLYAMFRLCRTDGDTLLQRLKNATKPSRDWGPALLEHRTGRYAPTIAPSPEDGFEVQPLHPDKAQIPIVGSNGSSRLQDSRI
Counter-ions that a name gives are not always drawn.
READOUT_LABEL: IC50

Cc1cc(NCc2ccc(Cl)c(Cl)c2)c2cccc(S(=O)(=O)N(C)C)c2n1 : ≤ 10000 nM
Cc1cc(NCc2ccc(Cl)c(Cl)c2)c2cccc(OCCNC(=O)C(C)C)c2n1 : ≤ 1000 nM

Query string: Reported IC50 for `Cc1cc(NCc2ccc(Cl)c(Cl)c2)c2cccc(Oc3ccccc3)c2n1` : what is it?
Result string: ≤ 1000 nM

Query string: Reported IC50 for Cc1cc(N[C@@H](c2ccccc2)[C@@H]2CCCCN2C)c2ccccc2n1 [Example 61, dihydrochloride] : what is it?
Result string: ≤ 10000 nM

Query string: Reported IC50 for `Cc1cc(NCc2ccc(Cl)cc2Cl)c2cccc(OCCN)c2n1` : what is it?
Result string: ≤ 10000 nM

Query string: Reported IC50 for Cc1cc(NCc2ccc(Cl)c(Cl)c2)c2cccc(OCCN(C)C)c2n1 [Example 50, dihydrochloride] : what is it?
Result string: ≤ 1000 nM

Query string: Reported IC50 for Cc1cc(NCc2ccc(Cl)c(Cl)c2)c2cccc(OCCNS(=O)(=O)c3ccccc3)c2n1 [Example 23, hydrochloride] : what is it?
Result string: ≤ 1000 nM

Query string: Reported IC50 for `CCCOc1cccc2c(NCc3ccc(Cl)c(Cl)c3)cc(C)nc12` : what is it?
Result string: ≤ 1000 nM

Query string: Reported IC50 for `Cc1cc(NCc2ccc(Cl)c(Cl)c2)c2cccc(NC(=O)C(C)C)c2n1` : what is it?
Result string: ≤ 10000 nM

Query string: Reported IC50 for `Cc1cc(NCc2ccc(Cl)c(Cl)c2)c2cccc(S(=O)(=O)NC(C)C)c2n1` : what is it?
Result string: ≤ 10000 nM
